// values below are reported viability at 24 h, 50 µM
Assay: Cytotoxicity against human HaCaT cells assessed as cell viability at 50 uM after 24 hrs by MTT assay
Assay type: cell-based
Conditions: HaCaT cells, read-out: Activity
Just the number in %, nothing appended.

compound | measurement_type | measurement
Cc1ccccc1C(c1cc([N+](=O)[O-])ccc1O)N1CCc2cc(Cl)ccc21 (configuration not stated) | viability at 24 h, 50 µM | 3

## Input I would be grateful if you could share the reported viability at 24 h, 50 µM for Cc1ccc(C(c2cc([N+](=O)[O-])ccc2O)N2CCc3cc([N+](=O)[O-])ccc32)cc1 (configuration not stated) .
## Output 94

---

System: HaCaT
Assay: Cytotoxicity against human HaCaT cells assessed as reduction in cell viability at 50 uM after 24 hrs by MTT assay
Format: cell-based
measurement_type: Activity

molecule | measurement_target | measurement_type | measurement
Cc1ccccc1C(c1cc([N+](=O)[O-])ccc1O)N1CCc2cc(Cl)ccc21 (centres undefined) | HaCaT | Activity | Toxic
Cc1ccccc1C(c1cc([N+](=O)[O-])ccc1O)N1CCc2cc(Br)ccc21 (centres undefined) | HaCaT | Activity | Toxic
O=[N+]([O-])c1ccc2c(c1)CCN2C(c1ccc(C(F)(F)F)cc1)c1cc([N+](=O)[O-])ccc1O (centres undefined) | HaCaT | Activity | Toxic

---

Assay: Cytotoxicity against human HaCaT cells assessed as cell viability at 28 uM after 24 hrs by MTT assay
Type: cell-based
Conditions: read-out: Activity
measurement_type: viability at 24 h, 28 µM (%)
Just the number please, in %, no unit attached.

## Input I have this molecule here, Cc1ccc(C(c2cc([N+](=O)[O-])ccc2O)N2CCc3ccccc32)cc1 (stereo unspecified) , and I need its recorded viability at 24 h, 28 µM.
## Output 20

---

Assay: Toxicity in Saccharomyces cerevisiae ATCC 2601 assessed as reduction in cell viability measured after 24 hrs by microdilution method
Conditions: Saccharomyces cerevisiae, Saccharomyces cerevisiae ATCC 2601 cells
measurement_type: IC50 at 24 h

# annotated cases, reported IC50 at 24 h shown
compound | IC50 at 24 h
O=[N+]([O-])c1ccc2c(c1)CCN2C(c1ccc(C(F)(F)F)cc1)c1cc([N+](=O)[O-])ccc1O (stereo not drawn) | 292 µM
Cc1ccccc1C(c1cc([N+](=O)[O-])ccc1O)N1CCc2cc(Cl)ccc21 (stereo not drawn) | > 100 µM

## Input Request the reported IC50 at 24 h associated with Cc1ccc(C(c2cc([N+](=O)[O-])ccc2O)N2CCc3ccccc32)cc1 (stereo not drawn)
## Output > 100 µM

---

Tested on: Staphylococcus epidermidis
Experiment: Antibacterial activity against Staphylococcus epidermidis ATCC 12228 assessed as inhibition of bacterial growth incubated for 16 to 24 hrs by broth microdilution method
Assay type: functional
Conditions: time 16-24 hrs
Catalogue of compounds with associated MBC
Respond numerically; units are µM and should not be typed.

Before answering, review these 5 worked examples.
compound | unit_symbol | MBC
Cc1ccc(C(c2cc([N+](=O)[O-])ccc2O)N2CCc3cc(Br)ccc32)cc1 (centres undefined) | µM | 4.71
Cc1ccc(C(c2cc([N+](=O)[O-])ccc2O)N2CCc3cc(O)ccc32)cc1 (centres undefined) | µM | 302
COc1ccc2c(c1)CCN2C(c1ccc(C)cc1)c1cc([N+](=O)[O-])ccc1O (centres undefined) | µM | 4.71
Cc1ccccc1C(c1cc([N+](=O)[O-])ccc1O)N1CCc2cc([N+](=O)[O-])ccc21 (centres undefined) | µM | 4.71
Cc1ccccc1C(c1cc([N+](=O)[O-])ccc1O)N1CCc2cc(Cl)ccc21 (centres undefined) | µM | 2.36

## Input Checklist item: MBC tested on Staphylococcus epidermidis, entry Cc1ccc(C(c2cc([N+](=O)[O-])ccc2O)N2CCc3cc([N+](=O)[O-])ccc32)cc1 (centres undefined) , value?
## Output 37.7

## Input Can you check Cc1ccc(C(c2cc([N+](=O)[O-])ccc2O)N2CCc3cc(Cl)ccc32)cc1 (centres undefined) next?
## Output 37.7

---

Test: Toxicity in Saccharomyces cerevisiae ATCC 2601 assessed as reduction in cell viability measured after 24 hrs by microdilution method
measurement_type: IC50 (µM)
Please respond with the number in µM and leave the unit unwritten.

## Input Need IC50, item `NYSTATIN`
## Output 3.31

---

Tested on: Staphylococcus aureus
Experiment: Antibacterial activity against methicillin-sensitive Staphylococcus aureus ATCC 25923 assessed as inhibition of bacterial growth incubated for 16 to 24 hrs by broth microdilution method
Format: functional
Conditions: time 16-24 hrs
The threshold is 40 µM. Values of MBC beneath it are tagged satisfied; values meeting or exceeding it are tagged not satisfied.

compound | assigned_label
Cc1ccccc1C(c1cc([N+](=O)[O-])ccc1O)N1CCc2cc([N+](=O)[O-])ccc21 (stereo not given) | satisfied
Cc1ccc(C(c2cc([N+](=O)[O-])ccc2O)N2CCc3cc(Br)ccc32)cc1 (stereo not given) | not satisfied
O=[N+]([O-])c1ccc2c(c1)CCN2C(c1ccc(C(F)(F)F)cc1)c1cc([N+](=O)[O-])ccc1O (stereo not given) | satisfied
O=[N+]([O-])c1ccc(O)c(C(c2ccc(C(F)(F)F)cc2)N2CCc3ccccc32)c1 (stereo not given) | satisfied

Continue with the compound presented below.
## Input For Cc1ccc(C(c2cc([N+](=O)[O-])ccc2O)N2CCc3ccccc32)cc1 (stereo not given) , is the recorded MBC below the cut-off of 40 µM?
## Output not satisfied

---

Tested on: Enterococcus faecalis
Assay: Antibacterial activity against vancomycin-resistant Enterococcus faecalis ATCC 51299 assessed as inhibition of bacterial growth incubated for 16 to 24 hrs by broth microdilution method
Type: functional
Conditions: time 16-24 hrs
measurement_type: MBC (µM)
Only the number, expressed in µM, is required.

compound | measurement
Cc1ccc(C(c2cc([N+](=O)[O-])ccc2O)N2CCc3cc(O)ccc32)cc1 (centres undefined) | 108
O=[N+]([O-])c1ccc(O)c(C(c2ccc(C(F)(F)F)cc2)N2CCc3ccccc32)c1 (centres undefined) | 151
O=[N+]([O-])c1ccc(O)c(C(c2ccc(Cl)cc2)N2CCc3ccccc32)c1 (centres undefined) | 19.7
Cc1ccc(C(c2cc([N+](=O)[O-])ccc2O)N2CCc3ccccc32)cc1 (centres undefined) | 173
Cc1ccccc1C(c1cc([N+](=O)[O-])ccc1O)N1CCc2c(C#N)cccc21 (centres undefined) | 162

## Input Please give the measured MBC for this compound: Cc1ccc(C(c2cc([N+](=O)[O-])ccc2O)N2CCc3cc(Br)ccc32)cc1 (centres undefined)
## Output 162

## Input What about this compound? Cc1ccccc1C(c1cc([N+](=O)[O-])ccc1O)N1CCc2cc(Br)ccc21 (centres undefined)
## Output 142

## Input What would you report for Cc1ccc(C(c2cc([N+](=O)[O-])ccc2O)N2CCc3c(C#N)cccc32)cc1 (centres undefined) ?
## Output 172

## Input Please answer likewise for Cc1ccc(C(c2cc([N+](=O)[O-])ccc2O)N2CCc3cc(Cl)ccc32)cc1 (centres undefined)
## Output 9.19

---

Tested on: Staphylococcus aureus
Assay: Antibacterial activity against methicillin-sensitive Staphylococcus aureus ATCC 25923 assessed as inhibition of bacterial growth incubated for 16 to 24 hrs by broth microdilution method
Assay type: functional
Conditions: time 16-24 hrs
Could you please mark condition met for values of MBC below 90 µM and condition not met for values at or above it?

Study these solved cases before continuing.
molecule | measurement_target | assigned_label
Cc1ccc(C(c2cc([N+](=O)[O-])ccc2O)N2CCc3cc(Cl)ccc32)cc1 (centres undefined) | Staphylococcus aureus | condition met
O=[N+]([O-])c1ccc(O)c(C(c2ccc(Cl)cc2)N2CCc3ccccc32)c1 (centres undefined) | Staphylococcus aureus | condition met
Cc1ccccc1C(c1cc([N+](=O)[O-])ccc1O)N1CCc2cc(Cl)ccc21 (centres undefined) | Staphylococcus aureus | condition met
Cc1ccc(C(c2cc([N+](=O)[O-])ccc2O)N2CCc3c(C#N)cccc32)cc1 (centres undefined) | Staphylococcus aureus | condition met
COc1ccc2c(c1)CCN2C(c1ccc(C)cc1)c1cc([N+](=O)[O-])ccc1O (centres undefined) | Staphylococcus aureus | condition not met

## Input Decide: MBC of Cc1ccccc1C(c1cc([N+](=O)[O-])ccc1O)N1CCc2c(C#N)cccc21 (centres undefined) strictly below 90 µM?
## Output condition met

## Input Please do the same for Cc1ccc(C(c2cc([N+](=O)[O-])ccc2O)N2CCc3cc([N+](=O)[O-])ccc32)cc1 (centres undefined) as well.
## Output condition met

## Input Item: Cc1ccc(C(c2cc([N+](=O)[O-])ccc2O)N2CCc3cc(O)ccc32)cc1 (centres undefined)
## Output condition not met

## Input // same read-out, input: Cc1ccccc1C(c1cc([N+](=O)[O-])ccc1O)N1CCc2cc(Br)ccc21 (centres undefined)
## Output condition met
